# target-of-assay: Thermolysin (Bacillus thermoproteolyticus, UniProt P00800)
# Sequence (P00800 233-548 limits assumed): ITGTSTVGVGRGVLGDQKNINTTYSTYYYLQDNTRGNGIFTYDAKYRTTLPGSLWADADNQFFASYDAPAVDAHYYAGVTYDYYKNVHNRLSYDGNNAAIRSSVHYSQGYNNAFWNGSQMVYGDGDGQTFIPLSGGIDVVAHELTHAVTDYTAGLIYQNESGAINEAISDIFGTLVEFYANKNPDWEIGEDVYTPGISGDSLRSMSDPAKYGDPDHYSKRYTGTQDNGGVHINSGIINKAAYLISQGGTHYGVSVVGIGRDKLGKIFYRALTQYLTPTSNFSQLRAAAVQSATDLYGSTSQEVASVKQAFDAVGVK
observed-property: Ki (nM)

compound | reported-measurement
CC(C)C[C@H](NC(CCc1ccccc1)C(=O)O)C(=O)N[C@@H](Cc1c[nH]c2ccccc12)C(=O)O (stereo partly specified) | 50

====

# target-of-assay: Angiotensin-converting enzyme (Homo sapiens)
# protocol-summary: Tested for inhibitory potency against Angiotensin I Converting Enzyme

compound | IC50 (µM)
CCC(C)C(S)CC(C(=O)NC(Cc1ccc(O)cc1)C(=O)O)C(C)CC (stereo not drawn) | 3.4
CCC(C)C(CC(S)CCc1ccccc1)C(=O)NC(Cc1ccc(O)cc1)C(=O)O (stereo not drawn) | 2.9
CCC(C)C(S)CC(C(=O)NC(Cc1ccc(O)cc1)C(N)=O)C(C)CC (stereo not drawn) | 4

====

# target-of-assay: Neprilysin (Oryctolagus cuniculus)

molecule | target-of-assay | Ki / nM
O=C(O)C(CCc1ccccc1)N[C@@H](Cc1ccccc1)C(=O)NC[C@H](O)C(=O)O (stereo partly specified) | Neprilysin (Oryctolagus cuniculus) | 11

====

Measured IC50 values are reported for all entries that follow.
# target-of-assay: Neprilysin (Oryctolagus cuniculus)
# Sequence (P08049 whole entry): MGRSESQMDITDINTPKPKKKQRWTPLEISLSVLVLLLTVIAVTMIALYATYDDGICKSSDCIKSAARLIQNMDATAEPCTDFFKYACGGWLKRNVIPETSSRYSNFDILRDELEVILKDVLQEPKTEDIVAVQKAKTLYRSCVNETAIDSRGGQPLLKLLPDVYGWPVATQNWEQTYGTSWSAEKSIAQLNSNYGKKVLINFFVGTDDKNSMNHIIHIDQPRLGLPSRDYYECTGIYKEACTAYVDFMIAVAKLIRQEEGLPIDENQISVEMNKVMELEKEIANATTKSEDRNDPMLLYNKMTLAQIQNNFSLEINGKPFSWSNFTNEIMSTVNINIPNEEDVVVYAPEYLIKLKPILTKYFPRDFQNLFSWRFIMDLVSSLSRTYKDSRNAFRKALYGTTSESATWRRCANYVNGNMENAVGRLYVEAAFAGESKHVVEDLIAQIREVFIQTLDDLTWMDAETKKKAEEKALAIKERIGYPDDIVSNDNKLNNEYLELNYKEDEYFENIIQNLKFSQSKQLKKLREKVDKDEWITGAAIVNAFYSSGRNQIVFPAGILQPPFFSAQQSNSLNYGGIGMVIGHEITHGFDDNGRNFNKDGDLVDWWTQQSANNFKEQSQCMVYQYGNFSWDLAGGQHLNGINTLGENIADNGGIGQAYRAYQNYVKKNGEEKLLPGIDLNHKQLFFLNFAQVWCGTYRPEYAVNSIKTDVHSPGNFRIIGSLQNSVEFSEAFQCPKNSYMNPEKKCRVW
observed-property: IC50

compound | target-of-assay | reported-measurement
CCC(C)C(S)CC(Cc1ccccc1)C(=O)N[C@@H](Cc1ccc(O)cc1)C(=O)O (some centres undefined) | Neprilysin (Oryctolagus cuniculus) | 0.27 µM
CC(C)CC(S)C(Cc1ccccc1)C(=O)NC(C)C(=O)O (centres undefined) | Neprilysin (Oryctolagus cuniculus) | 0.0036 µM
CCC(C)C(CC(S)Cc1ccccc1)C(=O)N1CCCC1C(=O)O (centres undefined) | Neprilysin (Oryctolagus cuniculus) | 0.35 µM
CC(NC(=O)C(Cc1ccccc1)CC(S)Cc1ccccc1)C(=O)O (centres undefined) | Neprilysin (Oryctolagus cuniculus) | 0.19 µM
CCC(C)C(CC(S)Cc1ccccc1)C(=O)NC(Cc1ccc(O)cc1)C(=O)O (centres undefined) | Neprilysin (Oryctolagus cuniculus) | 0.22 µM
O=C(O)CCNC(=O)C(Cc1ccccc1)CC(S)Cc1ccccc1 (centres undefined) | Neprilysin (Oryctolagus cuniculus) | 0.29 µM
O=C(NC(Cc1ccc(O)cc1)C(=O)O)C(Cc1ccccc1)CC(S)Cc1ccccc1 (centres undefined) | Neprilysin (Oryctolagus cuniculus) | 0.15 µM
CCC(C)C(S)CC(Cc1ccccc1)C(=O)NC(Cc1ccc(O)cc1)C(N)=O (centres undefined) | Neprilysin (Oryctolagus cuniculus) | 0.35 µM
O=C(O)C1CCCN1C(=O)C(Cc1ccccc1)CC(S)Cc1ccccc1 (centres undefined) | Neprilysin (Oryctolagus cuniculus) | 0.32 µM

====

# target-of-assay: Angiotensin-converting enzyme (Homo sapiens, UniProt P12821)
# Sequence (P12821 whole entry): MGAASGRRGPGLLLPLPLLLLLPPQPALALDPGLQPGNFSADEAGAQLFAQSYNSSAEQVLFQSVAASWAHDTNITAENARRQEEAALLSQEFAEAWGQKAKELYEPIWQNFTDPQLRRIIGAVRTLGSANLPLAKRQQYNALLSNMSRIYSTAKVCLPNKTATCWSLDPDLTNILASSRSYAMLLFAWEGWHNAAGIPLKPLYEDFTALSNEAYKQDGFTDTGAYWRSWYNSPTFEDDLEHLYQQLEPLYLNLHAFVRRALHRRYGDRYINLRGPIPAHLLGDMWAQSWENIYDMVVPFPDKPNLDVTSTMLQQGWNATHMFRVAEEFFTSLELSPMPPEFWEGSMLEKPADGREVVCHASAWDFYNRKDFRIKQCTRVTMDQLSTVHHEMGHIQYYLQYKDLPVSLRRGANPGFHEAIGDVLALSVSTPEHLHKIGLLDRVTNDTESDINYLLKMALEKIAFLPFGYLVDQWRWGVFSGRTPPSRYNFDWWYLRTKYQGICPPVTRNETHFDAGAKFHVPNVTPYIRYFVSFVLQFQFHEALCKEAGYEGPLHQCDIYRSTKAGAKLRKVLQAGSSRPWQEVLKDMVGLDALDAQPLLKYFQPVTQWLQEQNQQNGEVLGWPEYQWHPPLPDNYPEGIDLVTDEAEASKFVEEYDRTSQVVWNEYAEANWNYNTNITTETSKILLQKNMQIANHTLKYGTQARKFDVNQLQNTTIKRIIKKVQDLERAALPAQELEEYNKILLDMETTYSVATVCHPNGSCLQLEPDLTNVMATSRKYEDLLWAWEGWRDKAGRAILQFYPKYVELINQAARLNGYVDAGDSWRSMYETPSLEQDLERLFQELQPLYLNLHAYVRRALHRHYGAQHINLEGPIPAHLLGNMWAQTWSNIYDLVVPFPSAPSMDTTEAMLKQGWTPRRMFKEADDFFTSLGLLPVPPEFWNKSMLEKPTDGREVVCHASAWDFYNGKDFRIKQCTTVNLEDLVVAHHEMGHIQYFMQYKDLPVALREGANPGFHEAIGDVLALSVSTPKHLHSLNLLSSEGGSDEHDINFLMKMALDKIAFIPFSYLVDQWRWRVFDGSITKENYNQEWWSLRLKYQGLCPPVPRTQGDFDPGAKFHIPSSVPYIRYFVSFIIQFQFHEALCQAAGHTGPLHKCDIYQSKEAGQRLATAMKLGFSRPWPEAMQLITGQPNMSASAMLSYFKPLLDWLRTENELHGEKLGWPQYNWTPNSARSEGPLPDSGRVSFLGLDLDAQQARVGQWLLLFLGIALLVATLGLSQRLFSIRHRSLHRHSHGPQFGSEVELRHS
# protocol-summary: Tested for inhibitory potency against Angiotensin I Converting Enzyme
pIC50: −log10 of the molar value.
observed-property: pIC50

compound | observed-property | reported-measurement
O=C(O)CCNC(=O)C(Cc1ccccc1)CC(S)Cc1ccccc1 (stereo unspecified) | pIC50 | 5.46
CCC(C)C(CC(S)Cc1ccccc1)C(=O)NC(Cc1ccc(O)cc1)C(=O)O (stereo unspecified) | pIC50 | 6.10
CCC(C)C1CC(Cc2ccccc2)SC1=O (stereo unspecified) | pIC50 | 5.64
O=C(NC(Cc1ccc(O)cc1)C(=O)O)C(Cc1ccccc1)CC(S)Cc1ccccc1 (stereo unspecified) | pIC50 | 5.62
CCC(C)C(S)CC(Cc1ccccc1)C(=O)N[C@@H](Cc1ccc(O)cc1)C(=O)O (stereo partly specified) | pIC50 | 5.36
CCC(C)C(S)CC(Cc1ccccc1)C(=O)N[C@H](Cc1ccc(O)cc1)C(=O)O (stereo partly specified) | pIC50 | 5.10
CCC(C)C(S)CC(Cc1ccccc1)C(=O)NC(Cc1ccc(O)cc1)C(N)=O (stereo unspecified) | pIC50 | 5.46
O=C(O)C1CCCN1C(=O)C(Cc1ccccc1)CC(S)Cc1ccccc1 (stereo unspecified) | pIC50 | 5.44
CCC(C)C(CC(S)Cc1ccccc1)C(=O)O (stereo unspecified) | pIC50 | 5.40
CCC(C)C(CC(S)Cc1ccccc1)C(=O)N1CCCC1C(=O)O (stereo unspecified) | pIC50 | 5.55
CC(NC(=O)C(Cc1ccccc1)CC(S)c1ccccc1)C(=O)O (stereo unspecified) | pIC50 | 5.46
